For each record, write down the corresponding Sol 1 (solubility limit).
- assay_overview: Solubility limit, turbidimetric assay
- Format: physicochemical
- test_settings: pH 7.4, replicate 1; upper limit 200 µM

// below: answered compounds
item_smiles: CC(=NOCc1ccc(F)cc1F)c1c(C)cc(=O)n(O)c1O
endpoint_name: Sol 1 (solubility limit)
measured_result: > 200 µM

item_smiles: CC(=NOCc1ccc(F)c(F)c1)c1c(C)cc(=O)n(O)c1O
endpoint_name: Sol 1 (solubility limit)
measured_result: > 200 µM

item_smiles: CC(=NOCc1ccc(OCc2ccccc2)cc1)c1c(C)cc(=O)n(O)c1O
endpoint_name: Sol 1 (solubility limit)
measured_result: > 200 µM

item_smiles: CC(=NOCc1ccc(OCc2ccc(C(C)(C)C)cc2)cc1)c1c(C)cc(=O)n(O)c1O
endpoint_name: Sol 1 (solubility limit)
measured_result: 100 µM

With those in mind, consider the next compound.
Notebook: `CC(=NOCc1cccc(Cl)c1)c1c(C)cc(=O)n(O)c1O` , Sol 1 (solubility limit) read as > 200 µM

Data origin: paper PMC11784145
